This collection of values is drawn from ChEMBL document CHEMBL1140532.

- System: NB-4
- assay-procedure: Growth inhibition of human NB4 cells by SRB assay
- Format: functional, cell-based
For each entry below, report its log10(IC50) value.
Scale: log10; quantity: IC50; unit before log: nM

Would you please give the reported log10(IC50) of O=C(CCCCCC(OCc1ccc(C(F)(F)F)cc1)C(=O)Nc1ccccc1)NO (centres undefined) with NB-4? 2.23

Would you please give the reported log10(IC50) of CCCOC(CCCCC(=O)NO)C(=O)Nc1ccccc1 (centres undefined) with NB-4? 3.61

Would you please give the reported log10(IC50) of O=C(CCCCCC(OCc1ccc(Br)cc1)C(=O)Nc1ccccc1)NO (centres undefined) with NB-4? 1.78

Would you please give the reported log10(IC50) of COc1cccc(COC(CCCCCC(=O)NO)C(=O)Nc2ccccc2)c1 (centres undefined) with NB-4? 2.20

Would you please give the reported log10(IC50) of Cc1ccc(COC(CCCCCC(=O)NO)C(=O)Nc2ccccc2)cc1 (centres undefined) with NB-4? 2.08

Would you please give the reported log10(IC50) of COC(CCCCCC(=O)NO)C(=O)Nc1ccccc1 (centres undefined) with NB-4? 2.72

Would you please give the reported log10(IC50) of "COc1ccc(CO[C@H](CCCCCC(=O)NO)C(=O)Nc2ccccc2)cc1" with NB-4? 1.85

Would you please give the reported log10(IC50) of COC(CCCCC(=O)NO)C(=O)Nc1ccccc1 (centres undefined) with NB-4? 3.54

Would you please give the reported log10(IC50) of COc1cc(COC(CCCCCC(=O)NO)C(=O)Nc2ccccc2)cc(OC)c1 (centres undefined) with NB-4? 1.70

Would you please give the reported log10(IC50) of C=CCOC(CCCCCC(=O)NO)C(=O)Nc1ccccc1 (centres undefined) with NB-4? 2.65

Would you please give the reported log10(IC50) of COc1cccc(COC(CCCCCC(=O)NO)C(=O)N(Cc2cccc(OC)c2)c2ccccc2)c1 (centres undefined) with NB-4? 3.60

Would you please give the reported log10(IC50) of O=C(CCCCCC(Oc1cccc(Oc2ccccc2)c1)C(=O)Nc1ccccc1)NO (centres undefined) with NB-4? 2.36

Would you please give the reported log10(IC50) of C=CCOC(CCCCCCC(=O)NO)C(=O)Nc1ccccc1 (centres undefined) with NB-4? 2.79

Would you please give the reported log10(IC50) of COc1ccc(COC(CCCCCC(=O)NO)C(=O)Nc2ccccc2)cc1 (centres undefined) with NB-4? 2.08

Would you please give the reported log10(IC50) of COc1ccc(COC(CCCCCC(=O)NO)C(=O)Nc2ccc(OC)cc2)cc1 (centres undefined) with NB-4? 2.18

Would you please give the reported log10(IC50) of "COc1ccc(CO[C@@H](CCCCCC(=O)NO)C(=O)Nc2ccccc2)cc1" with NB-4? 2.04

Would you please give the reported log10(IC50) of COc1ccc(NC(=O)C(CCCCCC(=O)NO)OCc2ccccc2)cc1 (centres undefined) with NB-4? 2.40

Would you please give the reported log10(IC50) of O=C(CCCCCC(O)C(=O)Nc1ccccc1)NO (centres undefined) with NB-4? 2.53
